pIC50: −log10 of the molar value.
Hi, quick share: literature pIC50 data for Receptor-type tyrosine-protein kinase FLT3 (Homo sapiens, UniProt P36888), several sources combined.
measured_parameter: pIC50

O=C1Nc2cc(NC(=O)c3cccn(-c4ccc(C(F)(F)F)cc4)c3=O)ccc2/C1=C/c1ccc[nH]1    6.86

1: CCc1nn(C)c2c1/C=C/c1n[nH]c3ccc(cc13)-c1cnn(C)c1OCCN(C)C2=O
2: CNC1(COc2ccc3c(n2)sc2nc(-c4ccc(NC(=O)Nc5cc(C(C)(C)C)on5)cc4)cn23)CC1
Compare reported pIC50 values for 1 and 2 . Which is lower? // return label of chosen record
2

---

Multiple publications report IC50 for Receptor-type tyrosine-protein kinase FLT3 (Homo sapiens, UniProt P36888); what follows is a combined list.

Record excerpt, results attached:
Cc1[nH]c(/C=C2\C(=O)Nc3cc(NC(=O)c4c[nH]cc(-c5ccc(F)cc5)c4=O)ccc32)c(C)c1CC(=O)N1CCN(C)CC1    10.3 nM
COC[C@H](C)Nc1ncc2c(-c3ccc(CN4CCN(C)CC4)cc3)cc([C@H]3CC[C@H](O)CC3)n2n1 (single isomer, unassigned)    100 to 1000 nM
CCc1nc2c(N)ncc(-c3ccc(N4CCC(N5CCN(C)CC5)CC4)c(C(F)F)c3)c2nc1NC1CCOCC1    ≤ 10 nM

Under Receptor-type tyrosine-protein kinase FLT3 (Homo sapiens, UniProt P36888), report IC50 for "CCc1nc2c(N)ncc(-c3cnn(-c4ccc(OC5CCN(C)CC5)cc4)c3)c2nc1N[C@@H]1CC[C@H](O)C1"
> 500 nM

Fetch value of IC50 on Receptor-type tyrosine-protein kinase FLT3 (Homo sapiens, UniProt P36888) for "O=C1Nc2cc(NC(=O)N3CCN(c4ccc(Cl)c(C(F)(F)F)c4)C3=O)ccc2/C1=C/c1ccc[nH]1" .
569 nM

Look up Receptor-type tyrosine-protein kinase FLT3 (Homo sapiens, UniProt P36888) data: IC50 of CCCC(C)Nc1ncc2c(N3CC[C@H](N(C)C)C3)ncc([C@H]3CC[C@H](O)CC3)c2n1 (stereo partly drawn) , then report it.
1000 to 10000 nM

State, for Receptor-type tyrosine-protein kinase FLT3 (Homo sapiens, UniProt P36888), measured IC50 of the molecule listed here: CC(Nc1ncc2c(-c3cnn(C4COC4)c3)cc(C3CCC(O)CC3)n2n1)c1ccccn1 (stereo not drawn)
1000 to 10000 nM

Report value: IC50, system: Receptor-type tyrosine-protein kinase FLT3 (Homo sapiens, UniProt P36888), molecule: "COC[C@H](C)Nc1ncc2c(-c3ccc(C(=O)N4CCN(C)CC4)cc3)cc([C@H]3CC[C@H](O)CC3)n2n1"
100 to 1000 nM

// fetch IC50 for "CCc1nc2c(N)ncc(-c3ccc(N4CCC(N5CCN(CC)CC5)CC4)c(OC)c3)c2nc1NC1CCOCC1" ; system: Receptor-type tyrosine-protein kinase FLT3 (Homo sapiens, UniProt P36888)
≤ 10 nM

Fetch value of IC50 on Receptor-type tyrosine-protein kinase FLT3 (Homo sapiens, UniProt P36888) for "O=c1c2cc(Cl)ccc2sc2c(NCCCO)nc3ccccc3c12" .
> 1000 nM

State recorded IC50 with Receptor-type tyrosine-protein kinase FLT3 (Homo sapiens, UniProt P36888), entry "COc1ccc(Nc2ncc(Cc3c[nH]c4ncc(C)cc34)cn2)cc1" , no comment.
< 10 nM
